Test system: pigweed (Amaranthus retroflexus)
Experiment: Test A postemergence
Format: in vivo
Conditions: 500 g ai/ha, postemergence; visual injury, 0 to 100 scale (0 no effect, 100 complete control), approx. 10 d
Kindly supply the reported Plant response rating, Pigweed values for the records listed here.
One number for each entry.

List the reported Plant response rating, Pigweed of each molecule below.
1. Cc1ccc(C2CNC(=O)C2C(=O)Nc2ccccc2F)cc1C(F)(F)F (racemic) [Compound 678]
2. CN1CC(c2ccc(C(C)(F)F)cc2)C(C(=O)Nc2ccccc2F)C1=O (stereo not drawn) [Compound 691]
3. O=C1NCC(c2cccc(Br)c2)C1C(=O)Nc1cccc(F)c1F (racemic) [Compound 688]

Out:
1: 0; 2: 70; 3: 50
